Target: T1, human NMI (N-myc Interacting protein), recombinant protein (human, UniProt Q13287 1-307, limits assumed)
T1 construct: Gene ID: 9111; also called hNMI; antigen
T1 sequence (looked up): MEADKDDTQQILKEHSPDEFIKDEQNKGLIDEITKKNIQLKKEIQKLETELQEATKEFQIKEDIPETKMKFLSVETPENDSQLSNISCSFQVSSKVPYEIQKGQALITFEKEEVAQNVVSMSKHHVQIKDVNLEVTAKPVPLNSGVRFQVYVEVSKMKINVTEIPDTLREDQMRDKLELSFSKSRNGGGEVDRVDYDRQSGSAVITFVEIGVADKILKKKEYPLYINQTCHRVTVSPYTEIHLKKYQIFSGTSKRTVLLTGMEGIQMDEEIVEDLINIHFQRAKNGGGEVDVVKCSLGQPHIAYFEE
Test: sandwich ELISA; detection 94C4-1-biotin 0.5µg/mL; hNMI 781.250 pg/mL
ENDPOINT_NAME: OD450 (OD450)

BINDER	OBSERVED_VALUE
monoclonal antibody 98G10 (antibody, V domains shown, Rabbit monoclonal antibody) VH: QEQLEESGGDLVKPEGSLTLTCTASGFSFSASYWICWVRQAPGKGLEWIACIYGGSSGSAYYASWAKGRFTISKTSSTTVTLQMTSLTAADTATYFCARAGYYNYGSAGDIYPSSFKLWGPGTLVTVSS VL: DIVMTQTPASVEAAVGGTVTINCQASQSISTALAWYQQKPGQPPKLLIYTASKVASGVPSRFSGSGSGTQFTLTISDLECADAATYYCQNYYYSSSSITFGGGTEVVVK	0.377
monoclonal antibody B-8 (antibody, V domains shown, Rabbit monoclonal antibody; also called B8-1) VH: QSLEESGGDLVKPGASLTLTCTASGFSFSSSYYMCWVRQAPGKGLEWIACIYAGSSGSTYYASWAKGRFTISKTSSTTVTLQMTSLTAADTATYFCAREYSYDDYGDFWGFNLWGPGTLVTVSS VL: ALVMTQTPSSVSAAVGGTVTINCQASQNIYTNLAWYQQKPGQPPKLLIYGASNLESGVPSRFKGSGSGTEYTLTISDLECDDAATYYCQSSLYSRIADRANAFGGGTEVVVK	0.265
monoclonal antibody 39B4 (antibody, V domains shown, Rabbit monoclonal antibody; also called 39B4-1) VH: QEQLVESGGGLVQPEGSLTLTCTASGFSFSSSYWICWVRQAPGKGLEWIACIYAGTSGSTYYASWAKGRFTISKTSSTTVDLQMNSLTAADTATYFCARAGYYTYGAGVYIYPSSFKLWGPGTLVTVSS VL: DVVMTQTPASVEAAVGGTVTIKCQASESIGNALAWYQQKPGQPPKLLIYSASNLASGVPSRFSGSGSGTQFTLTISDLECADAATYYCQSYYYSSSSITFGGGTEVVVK	0.387
monoclonal antibody 240B10-1 (antibody, V domains shown, Rabbit monoclonal antibody) VH: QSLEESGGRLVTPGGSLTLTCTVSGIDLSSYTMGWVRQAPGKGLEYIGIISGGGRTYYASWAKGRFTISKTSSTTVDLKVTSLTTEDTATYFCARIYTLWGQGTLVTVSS VL: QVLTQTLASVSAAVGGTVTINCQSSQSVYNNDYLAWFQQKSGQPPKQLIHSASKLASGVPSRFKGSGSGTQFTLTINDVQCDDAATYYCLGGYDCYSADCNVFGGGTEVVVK	0.396
